experiment: VP16 transactivation reporter inhibitors, counter-screen for LRH-1 inverse agonist project, cell-based, luminescence, high throughput (AID 651615); details: Gal4-VP16 luciferase reporter cells, at 3.6 µM, active compounds read high
Property Label: inhibition (%)
Write the number in % without appending the unit.

| Molecule | inhibition (%) |
| --- | --- |
| O=C(COc1ccc2c3c(c(=O)oc2c1)CCCC3)NCCN1CCOCC1 | -1.02 |
| COc1cccc(N2CCN(c3ncnc4c3[nH]c3ccc(F)cc34)CC2C)c1 (stereo not given) | 97.2 |
| CC(C)CCCCCCCCCCCCC(=O)NCC(=O)NC1C(C)OC(Nc2ncnc3nc[nH]c23)C(O)C1O (stereo not given) | 95.8 |
| Cc1cc(C)c(CN2CCN(C(=O)Cn3cnc4c(NCc5ccccc5)ncnc43)CC2)c(C)c1 | 57.9 |
| COc1ccc(/C=N/NC(=O)c2[nH]c3ccc(Br)cc3c2-c2ccccc2)cc1 | 32.6 |
| CC(=O)N1CCc2c(sc(NC(=O)c3ccc([N+](=O)[O-])o3)c2C#N)C1 | -119 |
| CCCc1nc2cc(C)c(Br)c(C)n2c1Cc1ccc(OC)cc1C | 5.35 |
| CC1=C(C(=O)OCc2ccc3c(c2)OCO3)C(c2ccc(F)cc2)NC(=O)N1 (stereo not given) | 85.2 |
| C=CCNc1nc2c(c(=O)n(C)c(=O)n2C)n1CCCCCC | 47.2 |
| COc1ccc(S(=O)(=O)Nc2cc3c4c(oc3c3ccccc23)CCCC4=O)cc1 | -1.29 |

Qu. Quick check: inhibition of `O=C(NC1CCCCCCC1)c1cc(COc2ccc3ncccc3c2)on1` ?
Ans. 51.6

Qu. Which inhibition reading was recorded for the molecule `O=C(N/N=C/c1ccc(O)cc1)c1ccc(COc2cc(Cl)ccc2Cl)o1` ?
Ans. 57.9

Qu. I would be grateful if you could share the reported inhibition for `COc1ccc(OCCNC(=O)c2ccccc2OCC(=O)Nc2ccc(NC(C)=O)cc2)cc1` .
Ans. 0

Qu. Return reported inhibition; argument: `CCNc1cc(N2CCCC2)ccc1[N+](=O)[O-]`
Ans. -8.79

Qu. What measured inhibition goes with `CCc1ccc2oc(C(=O)NCc3ccncc3)c(C)c2c1` ?
Ans. 6.18

Qu. Please give the measured inhibition for this molecule: `COc1cc2oc(-c3ccc(O)cc3)cc(=O)c2c(O)c1OC`
Ans. -45.5

Qu. Fill blank: measured inhibition of the molecule CC(O)CC(=O)OC[C@]12CC[C@H]3[C@@](C)(CC[C@H]4C(C)(C)CCC[C@]34C)[C@@H]1CC(C1=CC(=O)OC1O)O2 (stereo not given in full) is ____.
Ans. 75.2

Qu. Requested field: inhibition. Item: `CCN(CC)c1nc(-c2ccccn2)nc(-c2ccccc2)c1C#N`
Ans. 13.6

Qu. Can you share its inhibition? I mean this molecule: `O=C1/C(=C/c2ccccc2)CN(C(=O)CCN2CCOCC2)C/C1=C\c1ccccc1`
Ans. 55.2

Qu. Reported inhibition for `O=C(COc1ccc(C(=O)c2ccccc2)cc1)NCc1ccc(F)cc1` : what is it?
Ans. 30.4

Qu. So what does the record say about inhibition for `CCOc1ccc(CCNC(=O)COC(=O)CCc2cc(OC)c(OC)c(OC)c2)cc1OCC` ?
Ans. 2.92

Data origin: PubChem BioAssay
